# test-name: Stability of estrogen quinones at various pH (remaining quinone by HPLC)
# Assay type: physicochemical
# stated-conditions: trishcl, pH 9
parameter-measured: half-life

Quick one: half-life for C[C@]12CC[C@@H]3C4=C(CC[C@H]3[C@@H]1CCC2=O)C(=O)C(=O)C=C4 [E1-3,4-Q] ?
< 5 min

* * *

# test-name: Stability of estrogen quinones at various pH (remaining quinone by HPLC)
# Assay type: physicochemical
# stated-conditions: citric acid, pH 3
parameter-measured: half-life (h)
Write it as a number; the unit h goes unstated.

Quick one: half-life for C[C@]12CC[C@@H]3C4=C(CC[C@H]3[C@@H]1CCC2=O)C(=O)C(=O)C=C4 [E1-3,4-Q] ?
6.5

Ref: patent US5952183A
